EXPERIMENTAL TARGET: glucokinase (GLK) (Homo sapiens, UniProt P35557)
Sequence (P35557 1-466 isoform P35557-2): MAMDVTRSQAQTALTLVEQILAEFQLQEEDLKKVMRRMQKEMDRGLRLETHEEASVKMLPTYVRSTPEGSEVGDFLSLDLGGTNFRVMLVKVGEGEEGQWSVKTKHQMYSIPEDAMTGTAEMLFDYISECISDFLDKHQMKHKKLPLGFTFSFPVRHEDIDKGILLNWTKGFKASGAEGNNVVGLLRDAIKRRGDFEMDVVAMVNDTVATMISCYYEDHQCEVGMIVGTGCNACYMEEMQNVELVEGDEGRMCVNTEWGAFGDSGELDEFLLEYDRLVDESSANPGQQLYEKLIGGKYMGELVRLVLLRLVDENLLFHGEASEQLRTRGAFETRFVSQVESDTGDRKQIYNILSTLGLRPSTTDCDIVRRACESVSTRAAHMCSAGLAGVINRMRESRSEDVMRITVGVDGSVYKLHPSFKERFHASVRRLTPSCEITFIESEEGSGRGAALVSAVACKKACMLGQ
ASSAY PROTOCOL: biochemical
pEC50: −log10 of the molar value.

SMILES: COC[C@H](C)Oc1cc(Oc2ccc3c(c2)OCO3)cc(C(=O)Nc2ccc(C(=O)O)cn2)c1
EXPERIMENTAL TARGET: glucokinase (GLK) (Homo sapiens, UniProt P35557)
pEC50: 7.22
